B1: Zinc finger homeobox protein 4, residues 2086 to 2141; numbered along this chain, Q86UP3 (parent)
chain: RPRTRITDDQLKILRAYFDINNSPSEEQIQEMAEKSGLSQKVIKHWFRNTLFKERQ

- Variants of: B1
- test.name: abundance fitness (aPCA) (normalised: wild type 0, dead -1); higher = more abundant; growth selection in yeast, the domain comes from the species named
- measurement.conditions: Homo sapiens
Label 1 (yes) when abundance fitness is at or above -0.2; anything below gets 0 (no).

Decide: abundance fitness of "T50L" >= -0.2?
1 (yes)

Decide: abundance fitness of "S25P" >= -0.2?
0 (no)

Decide: abundance fitness of "L38T" >= -0.2?
0 (no)

Decide: abundance fitness of "H45E" >= -0.2?
1 (yes)

Decide: abundance fitness of "W46G" >= -0.2?
0 (no)

Decide: abundance fitness of "G37C" >= -0.2?
1 (yes)

Decide: abundance fitness of "I20C" >= -0.2?
1 (yes)

Decide: abundance fitness of "R55G" >= -0.2?
1 (yes)

Decide: abundance fitness of "L38V" >= -0.2?
1 (yes)

Decide: abundance fitness of "M32K" >= -0.2?
0 (no)

Decide: abundance fitness of "R55D" >= -0.2?
1 (yes)

Decide: abundance fitness of "Q28Y" >= -0.2?
0 (no)

Decide: abundance fitness of "P24I" >= -0.2?
0 (no)

Decide: abundance fitness of "G37S" >= -0.2?
1 (yes)

Decide: abundance fitness of "Q40R" >= -0.2?
1 (yes)

Decide: abundance fitness of "T50K" >= -0.2?
1 (yes)

Decide: abundance fitness of "R48Q" >= -0.2?
1 (yes)

Decide: abundance fitness of "F47G" >= -0.2?
0 (no)

Decide: abundance fitness of "I20M" >= -0.2?
1 (yes)

Decide: abundance fitness of "Q40D" >= -0.2?
0 (no)

Decide: abundance fitness of "S23H" >= -0.2?
1 (yes)

Decide: abundance fitness of "G37V" >= -0.2?
0 (no)

Decide: abundance fitness of "N49Q" >= -0.2?
1 (yes)

Decide: abundance fitness of "F52A" >= -0.2?
1 (yes)

Decide: abundance fitness of "Q30W" >= -0.2?
0 (no)

Decide: abundance fitness of "Q40W" >= -0.2?
1 (yes)

Decide: abundance fitness of "P24L" >= -0.2?
0 (no)

Decide: abundance fitness of "A33H" >= -0.2?
1 (yes)

Decide: abundance fitness of "Q30E" >= -0.2?
1 (yes)

Decide: abundance fitness of "Q56N" >= -0.2?
1 (yes)

Decide: abundance fitness of "I29N" >= -0.2?
0 (no)

Decide: abundance fitness of "D19T" >= -0.2?
1 (yes)

Decide: abundance fitness of "S36N" >= -0.2?
0 (no)

Decide: abundance fitness of "L38C" >= -0.2?
1 (yes)

Decide: abundance fitness of "E27Q" >= -0.2?
1 (yes)

Decide: abundance fitness of "H45D" >= -0.2?
1 (yes)

Decide: abundance fitness of "I20Y" >= -0.2?
1 (yes)

Decide: abundance fitness of "K53W" >= -0.2?
1 (yes)

Decide: abundance fitness of "E54P" >= -0.2?
1 (yes)

Decide: abundance fitness of "Q56A" >= -0.2?
0 (no)

Decide: abundance fitness of "Q28C" >= -0.2?
0 (no)

Decide: abundance fitness of "M32A" >= -0.2?
0 (no)

Decide: abundance fitness of "R55P" >= -0.2?
1 (yes)

Decide: abundance fitness of "M32W" >= -0.2?
0 (no)

Decide: abundance fitness of "W46M" >= -0.2?
0 (no)

Decide: abundance fitness of "H45N" >= -0.2?
1 (yes)

Decide: abundance fitness of "N22D" >= -0.2?
1 (yes)

Decide: abundance fitness of "M32I" >= -0.2?
0 (no)

Decide: abundance fitness of "S23V" >= -0.2?
1 (yes)

Decide: abundance fitness of "E26Y" >= -0.2?
1 (yes)

Decide: abundance fitness of "M32G" >= -0.2?
0 (no)

Decide: abundance fitness of "V42M" >= -0.2?
1 (yes)

Decide: abundance fitness of "F52R" >= -0.2?
1 (yes)

Decide: abundance fitness of "S36D" >= -0.2?
0 (no)

Decide: abundance fitness of "I29A" >= -0.2?
0 (no)

Decide: abundance fitness of "E54N" >= -0.2?
1 (yes)

Decide: abundance fitness of "N22C" >= -0.2?
1 (yes)

Decide: abundance fitness of "E31P" >= -0.2?
0 (no)

Decide: abundance fitness of "E26G" >= -0.2?
1 (yes)

Decide: abundance fitness of "E54D" >= -0.2?
1 (yes)

Decide: abundance fitness of "E31V" >= -0.2?
1 (yes)

Decide: abundance fitness of "Q30G" >= -0.2?
1 (yes)

Decide: abundance fitness of "N49R" >= -0.2?
1 (yes)

Decide: abundance fitness of "E54V" >= -0.2?
1 (yes)

Decide: abundance fitness of "P24K" >= -0.2?
0 (no)

Decide: abundance fitness of "G37D" >= -0.2?
1 (yes)

Decide: abundance fitness of "D19Q" >= -0.2?
1 (yes)

Decide: abundance fitness of "Q40S" >= -0.2?
1 (yes)

Decide: abundance fitness of "E31W" >= -0.2?
0 (no)

Decide: abundance fitness of "E31Q" >= -0.2?
1 (yes)

Decide: abundance fitness of "P24W" >= -0.2?
0 (no)

Decide: abundance fitness of "K35F" >= -0.2?
0 (no)

Decide: abundance fitness of "T50A" >= -0.2?
1 (yes)

Decide: abundance fitness of "F52Y" >= -0.2?
1 (yes)

Decide: abundance fitness of "T50W" >= -0.2?
1 (yes)

Decide: abundance fitness of "R48C" >= -0.2?
1 (yes)

Decide: abundance fitness of "L51E" >= -0.2?
1 (yes)

Decide: abundance fitness of "E31T" >= -0.2?
1 (yes)

Decide: abundance fitness of "P24E" >= -0.2?
0 (no)

Decide: abundance fitness of "E27I" >= -0.2?
0 (no)

Decide: abundance fitness of "F47P" >= -0.2?
0 (no)

Decide: abundance fitness of "R48S" >= -0.2?
1 (yes)
